# target.of.assay: IRE1a (Homo sapiens, UniProt O75460)
# Sequence (O75460 19-977): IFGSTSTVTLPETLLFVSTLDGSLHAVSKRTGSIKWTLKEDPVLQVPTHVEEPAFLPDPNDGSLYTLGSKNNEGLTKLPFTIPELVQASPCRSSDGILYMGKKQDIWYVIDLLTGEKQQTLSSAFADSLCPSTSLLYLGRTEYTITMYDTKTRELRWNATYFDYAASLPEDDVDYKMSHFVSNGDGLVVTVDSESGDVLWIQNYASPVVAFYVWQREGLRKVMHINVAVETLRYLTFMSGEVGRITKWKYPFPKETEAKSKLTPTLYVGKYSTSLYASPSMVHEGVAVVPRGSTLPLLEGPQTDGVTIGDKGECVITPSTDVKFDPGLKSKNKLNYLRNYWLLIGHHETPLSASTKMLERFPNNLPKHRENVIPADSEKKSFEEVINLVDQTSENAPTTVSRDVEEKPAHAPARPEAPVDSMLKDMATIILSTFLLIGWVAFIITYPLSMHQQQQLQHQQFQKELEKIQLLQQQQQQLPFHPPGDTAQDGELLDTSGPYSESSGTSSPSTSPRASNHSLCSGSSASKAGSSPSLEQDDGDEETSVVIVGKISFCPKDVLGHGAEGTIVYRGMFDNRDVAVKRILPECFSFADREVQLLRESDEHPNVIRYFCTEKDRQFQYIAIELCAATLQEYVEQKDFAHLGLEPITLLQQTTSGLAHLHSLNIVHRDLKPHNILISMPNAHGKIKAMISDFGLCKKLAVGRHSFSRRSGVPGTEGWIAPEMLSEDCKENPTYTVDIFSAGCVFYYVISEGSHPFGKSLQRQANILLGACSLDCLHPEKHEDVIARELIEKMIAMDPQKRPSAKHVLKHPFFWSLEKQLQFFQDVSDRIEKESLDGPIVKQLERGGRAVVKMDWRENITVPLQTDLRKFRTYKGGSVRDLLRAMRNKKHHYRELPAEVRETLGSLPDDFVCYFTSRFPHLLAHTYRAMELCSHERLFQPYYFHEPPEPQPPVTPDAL
# protocol.description: IRE1a Endoribonuclease Nanoluciferase Assay (XBP1 luciferase reporter in 293T cells)
# protocol.conditions: 293T cells transfected with XBP1 luciferase reporter, ER stressors +/- inhibitors
Where a name gives a salt, the structure may show the parent alone.
metric.name: EC50

Would you please look over these solved cases?
>  <compound>
CCc1cc(-c2cc(NS(=O)(=O)c3ccccc3Cl)no2)cc2cnc(N[C@H]3CC[C@H](N)CC3)nc12 [44; Formic Acid]

>  <EC50>
≤ 5 nM

$$$$
>  <compound>
CCc1cc(-c2ccc(NS(=O)(=O)c3ccccc3Cl)c(F)c2)cc2cnc(N[C@@H]3CC[C@@H](N)C3)nc12 [78; Formic Acid]

>  <EC50>
≤ 5 nM

$$$$
>  <compound>
COc1nc(NS(=O)(=O)c2ccccc2Cl)ccc1-c1cc(C(F)(F)F)c2nc(N[C@H]3CC[C@H](N)CC3)ncc2c1 [134; Formic Acid]

>  <EC50>
≤ 5 nM

$$$$
>  <compound>
CCc1cc(-c2ccc(NS(=O)(=O)c3ccccc3Cl)cc2)cc2cnc(N[C@H]3CC[C@H](N)CC3)nc12.O=CO [18; Formic Acid]

>  <EC50>
≤ 5 nM

$$$$
>  <compound>
COc1nc(NS(=O)(=O)c2ccccc2Cl)ccc1-c1cc2cnc(N[C@H]3CC[C@H](N)CC3)nc2cc1C [104; Formic Acid]

>  <EC50>
50 to 100 nM

$$$$

Report EC50 for CCc1cc(-c2ccc(NS(=O)(=O)c3ccccc3Cl)c(F)c2)cc2cnc(N[C@@H]3CC[C@H](N)[C@H](C)C3)nc12 [70; Formic Acid] please.
≤ 5 nM

Report EC50 for CCc1cc(-c2ccc(NS(=O)(=O)c3ccccc3Cl)c(F)c2)cc2cnc(N[C@H]3CC[C@H](N(C)C)CC3)nc12.O=CO [69; Formic Acid] please.
≤ 5 nM

Report EC50 for N[C@H]1CC[C@H](Nc2ncc3cc(-c4ccc(NS(=O)(=O)c5ccccc5Cl)c(F)c4F)ccc3n2)CC1 [56; Formic Acid] please.
≤ 5 nM

Report EC50 for CCc1cc(-c2ccc(NS(=O)(=O)c3ccccc3Cl)nc2)cc2cnc(N[C@H]3CC[C@H](N)CC3)nc12.O=CO [27; Formic Acid] please.
≤ 5 nM

Report EC50 for CCc1cc(-c2ccc(NS(=O)(=O)c3ccccc3Cl)nc2OC)cc2cnc(N[C@H]3CC[C@H](N)CC3)nc12 [37; HCl ^] please.
≤ 5 nM

Report EC50 for O=S(=O)(Nc1ccc(-c2ccc3nc(N[C@H]4CCCNC4)ncc3c2)cc1F)c1ccccc1Cl [76; Formic Acid] please.
5 to 50 nM

###

# target.of.assay: UniProt:O75460
# protocol.description: IRE1a Endoribonuclease Nanoluciferase Assay (XBP1 luciferase reporter in 293T cells)
# Assay type: cell-based
# protocol.conditions: 293T cells transfected with XBP1 luciferase reporter, ER stressors +/- inhibitors
pEC50: −log10 of the molar value.
metric.name: pEC50

>  <molecule>
CCc1cc2nc(N[C@H]3CC[C@H](N)CC3)ncc2cc1-c1ccc(NS(=O)(=O)c2ccccc2Cl)nc1OC

>  <metric.name>
pEC50

>  <result>
≥ 8.30

$$$$
>  <molecule>
CCc1cc(-c2cnc(NS(=O)(=O)c3ccccc3Cl)cc2OC)cc2cnc(N[C@H]3CC[C@H](N)CC3)nc12

>  <metric.name>
pEC50

>  <result>
< 7.00

$$$$
>  <molecule>
CCc1cc(-c2ccc(NS(=O)(=O)c3ccccc3Cl)cn2)cc2cnc(N[C@H]3CC[C@H](N)CC3)nc12.O=CO

>  <metric.name>
pEC50

>  <result>
≥ 8.30

$$$$
>  <molecule>
CCc1nc(NS(=O)(=O)c2ccccc2Cl)ccc1-c1cc(CC)c2nc(NC34CCC(N(C)C)(CC3)CC4)ncc2c1

>  <metric.name>
pEC50

>  <result>
≥ 8.30

$$$$
>  <molecule>
CCc1cc(-c2cnc(NS(=O)(=O)c3ccccc3Cl)cc2C)cc2cnc(N[C@H]3CC[C@H](N)CC3)nc12

>  <metric.name>
pEC50

>  <result>
7.00 to 7.30

$$$$
>  <molecule>
NC1CCCC(Nc2ncc3cc(-c4ccc(NS(=O)(=O)c5ccccc5Cl)c(F)c4)ccc3n2)C1 (stereo not shown)

>  <metric.name>
pEC50

>  <result>
< 7.00

$$$$

Let us examine a further case.
Report pEC50 for Cc1nc(NS(=O)(=O)c2ccccc2Cl)ncc1-c1ccc2nc(N[C@H]3CC[C@H](N)CC3)ncc2c1 please.
7.00 to 7.30
